Target: Sodium-dependent dopamine transporter (Rattus norvegicus, UniProt P23977)
Sequence (P23977 whole entry): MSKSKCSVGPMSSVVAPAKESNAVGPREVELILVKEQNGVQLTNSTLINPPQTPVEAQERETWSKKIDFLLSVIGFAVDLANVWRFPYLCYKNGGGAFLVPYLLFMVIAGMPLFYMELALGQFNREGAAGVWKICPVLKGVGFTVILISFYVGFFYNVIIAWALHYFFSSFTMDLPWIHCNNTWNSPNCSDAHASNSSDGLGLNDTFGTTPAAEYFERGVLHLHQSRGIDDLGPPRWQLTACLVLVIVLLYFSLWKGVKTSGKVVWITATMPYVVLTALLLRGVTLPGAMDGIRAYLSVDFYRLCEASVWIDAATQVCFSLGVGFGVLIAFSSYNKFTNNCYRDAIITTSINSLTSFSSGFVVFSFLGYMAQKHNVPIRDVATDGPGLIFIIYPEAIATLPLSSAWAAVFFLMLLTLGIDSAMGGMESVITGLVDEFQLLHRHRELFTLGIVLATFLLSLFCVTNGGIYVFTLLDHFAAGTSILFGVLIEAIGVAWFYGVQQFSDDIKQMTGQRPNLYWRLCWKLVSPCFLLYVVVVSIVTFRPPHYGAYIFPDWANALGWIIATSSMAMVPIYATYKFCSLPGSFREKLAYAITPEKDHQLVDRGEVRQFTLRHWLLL
Assay: Inhibition of high affinity DA uptake into rat synaptosomes using [3H]DA
Format: subcellular, Brain
Measure: Ki (nM)
Express the result in nM but write the number alone.

Prompt: Find the recorded Ki belonging to "CN1CC[C@H](c2ccc(Cl)cc2)[C@@H](C(=O)OCCCOC(=O)[C@H]2CN(C)CC[C@@H]2c2ccc(Cl)cc2)C1" and report it.
Response: 108

Prompt: Find the recorded Ki belonging to "CN1CC[C@H](c2ccc(Cl)cc2)[C@@H](C(=O)NCCCCCCCNC(=O)[C@H]2CN(C)CC[C@@H]2c2ccc(Cl)cc2)C1" and report it.
Response: 190

Prompt: Find the recorded Ki belonging to "CN1CC[C@H](c2ccc(Cl)cc2)[C@@H](C(=O)OCCCCCCCCOC(=O)[C@H]2CN(C)CC[C@@H]2c2ccc(Cl)cc2)C1" and report it.
Response: 142

Prompt: Find the recorded Ki belonging to "CN1CC[C@H](c2ccc(Cl)cc2)[C@@H](C(=O)NCCCCCNC(=O)/C=C/c2ccc(Cl)cc2)C1" and report it.
Response: 253

Prompt: Find the recorded Ki belonging to "CN1CC[C@H](c2ccc(Cl)cc2)[C@@H](C(=O)NCCCCNC(=O)[C@H]2CN(C)CC[C@@H]2c2ccc(Cl)cc2)C1" and report it.
Response: 33

Prompt: Find the recorded Ki belonging to "CN1CC[C@H](c2ccc(Cl)cc2)[C@@H](C(=O)OCCCCCOC(=O)[C@H]2CN(C)CC[C@@H]2c2ccc(Cl)cc2)C1" and report it.
Response: 56

Prompt: Find the recorded Ki belonging to "CN1CC[C@H](c2ccc(Cl)cc2)[C@@H](C(=O)NCCCCCCNC(=O)[C@H]2CN(C)CC[C@@H]2c2ccc(Cl)cc2)C1" and report it.
Response: 75

Prompt: Find the recorded Ki belonging to "CN1CC[C@H](c2ccc(Cl)cc2)[C@@H](C(=O)NCCCCCNC(=O)c2ccc(Cl)cc2)C1" and report it.
Response: 256
